Experiment: amyloid nucleation score (Sup35N fusion, yeast selection) (log enrichment); library NNK3; higher = more nucleation; inactive = no reads after selection;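 also: zero at mode of non-aggregating sequences after 7 days selection at 30°C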
quantity-name: amyloid nucleation score

>>> print(df.to_string())
              substance    result
0             IWENNSIML  inactive
1  LGRPYQHVWYIHSEVKGVEY     0.116
2  CTTVDVGALVDGESNHCISL  inactive
3  LCRSGIFKSYWNITMFFKFL  inactive
4  CNHVLTNRLMHSSKNRCLFI  inactive
5    WVDGYFNLTENVPAVVGK  inactive
6               EAHGYVR  inactive
7          CRFVNLFGCVGS  inactive
8  KSLSGVIREENRDARGFWRS  inactive

----------
Listed below: amyloid nucleation score values for each entry.
Assay: amyloid nucleation score (Sup35N fusion, yeast selection) (log enrichment); library NNK2; higher = more nucleation; inactive = no reads after selection
quantity-name: amyloid nucleation score

>>> df
       monomer_sequence             quantity_name  result
0  CYARSASGVAIAVRRKRGVQ  amyloid nucleation score    1.23
1  NLYTYAVKAVSYSMTGVFIS  amyloid nucleation score  -0.114
2  GLNIGVCLIMHEDRTNSGGK  amyloid nucleation score    8.01
3  EETVLIFLCYMAGRDLYKVN  amyloid nucleation score    3.21
4             LAQSYVSYS  amyloid nucleation score   -1.45
5  RHDLWAPRTERMMVYMCTAA  amyloid nucleation score   0.544
6  QFVSDALVWGGITSMGWLMR  amyloid nucleation score   0.756
7  DRHRFIHFYAQGERKLSRTM  amyloid nucleation score  -0.358
8  LLSSLVFVVNFFAKGLRWLT  amyloid nucleation score    -1.9

----------
Experiment: amyloid nucleation score (Sup35N fusion, yeast selection) (log enrichment); library NNK3; higher = more nucleation; inactive = no reads after selection
quantity-name: amyloid nucleation score

In [3]: df
Out[3]:
       monomer_sequence    result
0  FTVCFVLPIAITPMMWDIWY  inactive
1  YSGLGSIVTNGYSYIYGEVL  inactive
2           WVTYWASRVFE  inactive
3        RVSFTSITWVSSLM     0.003
4     LAAICYEVFGCGTWMGC  inactive
5  SRLCARMSSGKTIGYCNLFL  inactive
6  IFCMFYGSMQAQTIKCNVTH      1.19
7              NLMEYSAC     0.182
8  AVTYNGYDHYYRDVARHCLR  inactive

----------
Assay: amyloid nucleation score (Sup35N fusion, yeast selection) (log enrichment); library NNK2; higher = more nucleation; inactive = no reads after selection
Lab note: class by amyloid nucleation score, see low group: < -0.5; middle group: ≥ -0.5 and < 0.2; high group: ≥ 0.2

In [3]: df
Out[3]:
               substance   label_class
 0  DTAHTNISECRAMVRMYRSR     low group
 1  VESMILSRYLHHILRGNSLC     low group
 2  AFSSCSMFATNRLPTSYKSD    high group
 3  WYTPRLRMLHLAEKGVRVVV    high group
 4            ESSFLLNHHT  middle group
 5           DNDYIYRYPWP  middle group
 6  RHTFLVSAGYKERMVGMTSG     low group
 7  VRMSLTLSFQVLAYWEGFIK     low group
 8     MGPKSRFRSTRNGVKYL     low group
 9   ENCHFLGWANNGVLKCSFT  middle group
10           NYCMRGVASIG  middle group
11       LKNVLTCESVINQLR  middle group
12  YHYDCYHLLTERKQGELVRT  middle group
13          YPCPAVVCSYAA    high group
14  MNFWMILVKSETYFNDRRPY    high group
15          MTSFGYHMNLCH  middle group
16  LLLLMWALGLLENLTTLHGF  middle group
17        SLYDGRVVRMYSRH    high group
18              SYFWRYFM  middle group
19     MSMLMRVRCEISVTTML    high group
20  VQNLMYIVISPFDRYGRCGR    high group
21      RLVTWGISQNRLAQLY  middle group
22  RVTHRQDCMNVLGSRDYFER     low group
23               FRCIDFR    high group
24  CWFSVYNTLVGCNLVPTKGD    high group
25  TASPSILTSKVTRYNLTVGC  middle group
26  FTVMFLLKMISFKGALHLRL     low group
27  CNPASYMSALVGGSVSRDSR  middle group
28             TLLSASYGV     low group
29             YRHDVWLEE  middle group
30             HPGMVVIAE    high group

----------
Assay: amyloid nucleation score (Sup35N fusion, yeast selection) (log enrichment); library NNK3; higher = more nucleation; inactive = no reads after selection
quantity-name: amyloid nucleation score

>>> print(df.to_string())
               substance             quantity_name    result
 0  HSYHPMPWTVNLGCHFGGYC  amyloid nucleation score      2.38
 1          YSAVSTSVMCAE  amyloid nucleation score  inactive
 2         AQEYRMQHRLGGL  amyloid nucleation score  inactive
 3  AWGYYPSLCGKEDVYSWGWG  amyloid nucleation score  inactive
 4  MFCMYTRDREIYLVETLLYV  amyloid nucleation score  inactive
 5  IVKRFWLNGSFTFSFCNGNG  amyloid nucleation score      2.09
 6  PFWWPRKQLYVSQSRKTTAS  amyloid nucleation score  inactive
 7                MQSAAM  amyloid nucleation score  inactive
 8  RSTFYIISCRTVDWESVSTR  amyloid nucleation score  inactive
 9  LFSVMSKYSFRWLRDNFCHA  amyloid nucleation score  inactive
10  SSPDCNYNECVPGACERRGF  amyloid nucleation score  inactive
11  PSKFVHKSDLCDNGYLPCTR  amyloid nucleation score  inactive
12              CIYGKVFF  amyloid nucleation score     0.309
13              ILCGESTR  amyloid nucleation score  inactive
14  WEWVRPFFLLGYAPEPNITI  amyloid nucleation score     0.232
15               SYTKDVV  amyloid nucleation score  inactive
16  DHFMNGMKQYTCRYFVLWPS  amyloid nucleation score  inactive
17  GIGIFSCLKSSVLCLIYLSR  amyloid nucleation score    -0.113
18             ESTIEMIAL  amyloid nucleation score      1.25
19  SWDFAYLYELIYFRFMFQGC  amyloid nucleation score  inactive
20       KVGFLFDGLFIFGGR  amyloid nucleation score  inactive
21  ESSMFARDTLWMSFVRTMHS  amyloid nucleation score  inactive
22  SKAVSLCGLRLMFFPLYPGS  amyloid nucleation score  inactive
23              GIRCSLVY  amyloid nucleation score  inactive
24  LEGLMANVMRGFRSVVPATW  amyloid nucleation score  inactive
25  IVLYQATCRSIKRVCVLETL  amyloid nucleation score  inactive
26  VLLQKGTETECGLAIVQLKW  amyloid nucleation score  inactive
27  LMANVGPAWLQSFAIRGTSH  amyloid nucleation score  inactive
28           SYSSGSSNNKS  amyloid nucleation score  inactive
29           MITLDCLNNNI  amyloid nucleation score  inactive
30  KLNILKTGMLCYVPHLIAHI  amyloid nucleation score  inactive
31  SDGSCRVRAFYSYKGALVSF  amyloid nucleation score  inactive
32     RFILDVMRVAAGFMVSK  amyloid nucleation score  inactive
33           SWRDILVKRHS  amyloid nucleation score  inactive
34  SWKARDYRGSVLGSIIRDFN  amyloid nucleation score  inactive
35              LLFENIQK  amyloid nucleation score  inactive
36  FSNQSNFNMELLLKDRDSTP  amyloid nucleation score  inactive

----------
Assay: amyloid nucleation score (Sup35N fusion, yeast selection) (log enrichment); library NNK1; higher = more nucleation; inactive = no reads after selection
We use -0.4 as the dividing line for amyloid nucleation score: on or above the line is T, below is F.

>>> print(df.to_string())
               substance  label_class
 0  PIGLMGFRLSSICLSIRTLP            F
 1        EDSGNVIGEYFWKF            F
 2         TGTHDVVVAVGYR            F
 3              EFYVLISV            F
 4  LLFHSGWMMNGNPWACWYRE            T
 5  CTFKAWRLYSVNKDSRIVLK            F
 6  YNIVPSADWVSWHGRLTGRR            T
 7  STVGPMWVWTTTLAKNAIPK            T
 8  FNTCMSLFSNCFPNCWMHFK            T
 9             GSWFYIFRV            T
10  SSDKLCAYFVREIWTQGAGW            T
11       ILPLLLMWFTYCDDV            T
12                FNSGNQ            F
13   DPIRCMCVFMVHPCRCDID            T
14  HTEEGKSWFMRGSSVWFRVG            T
15   VCIIIVYRIYLSYMCPISY            F
